Target: mGlu2 receptor (Homo sapiens, UniProt Q14416)
Sequence (Q14416 19-872): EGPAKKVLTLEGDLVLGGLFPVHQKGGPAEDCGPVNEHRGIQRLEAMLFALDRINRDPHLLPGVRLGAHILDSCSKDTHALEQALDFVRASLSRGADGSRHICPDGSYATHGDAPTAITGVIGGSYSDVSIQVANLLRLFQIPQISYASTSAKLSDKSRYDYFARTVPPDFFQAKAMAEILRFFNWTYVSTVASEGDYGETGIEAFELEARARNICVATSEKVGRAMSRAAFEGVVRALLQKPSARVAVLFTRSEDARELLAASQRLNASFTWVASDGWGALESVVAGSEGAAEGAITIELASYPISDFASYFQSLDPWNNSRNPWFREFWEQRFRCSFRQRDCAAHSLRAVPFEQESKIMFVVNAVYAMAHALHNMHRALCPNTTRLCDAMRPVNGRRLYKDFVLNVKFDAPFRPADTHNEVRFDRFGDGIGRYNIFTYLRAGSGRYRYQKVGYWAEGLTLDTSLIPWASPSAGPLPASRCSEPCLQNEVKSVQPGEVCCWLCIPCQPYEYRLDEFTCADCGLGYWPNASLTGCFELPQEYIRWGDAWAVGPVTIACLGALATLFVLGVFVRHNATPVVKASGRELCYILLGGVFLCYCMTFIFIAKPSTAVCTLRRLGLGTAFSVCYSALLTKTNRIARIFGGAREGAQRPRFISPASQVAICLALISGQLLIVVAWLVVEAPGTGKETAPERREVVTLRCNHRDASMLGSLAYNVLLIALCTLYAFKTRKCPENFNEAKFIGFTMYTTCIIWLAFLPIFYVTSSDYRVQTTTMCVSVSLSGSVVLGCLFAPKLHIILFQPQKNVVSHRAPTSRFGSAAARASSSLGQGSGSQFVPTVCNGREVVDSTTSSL
Assay: [35S]GTPγS binding assay, agonist mode
TEST_READOUT: EC50 (µM)

1) CCCCn1ccn2c(-c3ccc4c(ccn4-c4cccnc4)c3)c(C)nc2c1=O: 0.229

1 = CCCCn1ccn2c(-c3ccc(NCc4ccc(OC)nc4)cc3)c(C)nc2c1=O
2 = CCCCn1ccn2c(-c3ccc(Oc4ccc(C)nc4C)c(F)c3)c(C)nc2c1=O
*Q* Lowest EC50? choose 1 or 2 // output: label of the selected item
*A* 1
(1: 0.571 µM, 2: 1.82 µM)

P = CCCCn1ccn2c(-c3ccc(Oc4ccccc4)cc3)c(C)nc2c1=O
Q = CCCCn1ccn2c(-c3ccc(N4CCNCC4)c(Cl)c3)c(C)nc2c1=O
*Q* P or Q : whose EC50 is greater? // output: label of the selected item
*A* Q

====

Experiment: Brain and plasma kinetics in rat after a single dose
Type: in vivo, male Sprague Dawley rat
Conditions: male, Sprague Dawley, brain, po, 10 mg/kg
TEST_READOUT: concentration at 1 h (ng/g)
Give the value, in units of ng/g, as a plain number.

*Q* In one line, give reported concentration at 1 h of the entry "CCCCn1ccn2c(-c3ccc(Oc4ccccc4)cc3)c(C)nc2c1=O" .
*A* 104

====

Target: mGlu3 (Homo sapiens, UniProt Q14832)
Sequence (Q14832 23-879): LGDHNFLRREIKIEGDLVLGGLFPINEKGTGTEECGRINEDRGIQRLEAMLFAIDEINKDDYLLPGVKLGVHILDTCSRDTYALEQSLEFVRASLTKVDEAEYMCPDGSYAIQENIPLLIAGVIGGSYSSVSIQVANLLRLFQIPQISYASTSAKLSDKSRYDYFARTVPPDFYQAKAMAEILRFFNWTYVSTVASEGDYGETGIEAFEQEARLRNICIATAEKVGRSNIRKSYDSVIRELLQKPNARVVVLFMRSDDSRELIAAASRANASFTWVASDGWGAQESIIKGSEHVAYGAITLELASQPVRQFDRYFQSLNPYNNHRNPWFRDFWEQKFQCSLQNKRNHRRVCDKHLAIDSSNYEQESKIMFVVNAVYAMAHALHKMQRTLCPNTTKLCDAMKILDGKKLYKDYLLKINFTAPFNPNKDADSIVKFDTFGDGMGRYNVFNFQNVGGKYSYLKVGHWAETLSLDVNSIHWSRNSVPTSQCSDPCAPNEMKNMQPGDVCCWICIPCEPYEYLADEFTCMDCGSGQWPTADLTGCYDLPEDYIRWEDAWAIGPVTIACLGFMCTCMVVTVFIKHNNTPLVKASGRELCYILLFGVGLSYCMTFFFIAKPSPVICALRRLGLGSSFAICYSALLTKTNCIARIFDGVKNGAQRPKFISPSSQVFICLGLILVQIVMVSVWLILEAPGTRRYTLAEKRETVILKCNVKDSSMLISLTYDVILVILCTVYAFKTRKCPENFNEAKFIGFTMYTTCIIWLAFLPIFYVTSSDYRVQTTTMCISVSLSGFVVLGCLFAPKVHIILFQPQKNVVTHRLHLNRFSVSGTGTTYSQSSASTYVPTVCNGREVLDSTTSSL
Experiment: Selectivity panel, mGlu3 Ca2+ assay
Type: cell-based
Settings: mGlu3 agonism EC50, Ca2+ read-out
TEST_READOUT: EC50

*Q* Consider the compound "CCCCn1ccn2c(-c3ccc(OCC4CC4)c(Cl)c3)c(C)nc2c1=O" tested on mGlu3 (Homo sapiens, UniProt Q14832); state its EC50.
*A* > 30 µM

====

Test: Brain and plasma kinetics in rat after a single dose
Type: in vivo, male Sprague Dawley rat
Details: male, Sprague Dawley, plasma, po, 10 mg/kg
TEST_READOUT: concentration at 2 h (ng/mL)
Give the value, in units of ng/mL, as a plain number.

*Q* In one line, give reported concentration at 2 h of the entry "CCCCn1ccn2c(-c3ccc(Oc4ccccc4)cc3)c(C)nc2c1=O" .
*A* 192

====

Biological target: mGlu5 (Homo sapiens)
Sequence (P41594 21-1212): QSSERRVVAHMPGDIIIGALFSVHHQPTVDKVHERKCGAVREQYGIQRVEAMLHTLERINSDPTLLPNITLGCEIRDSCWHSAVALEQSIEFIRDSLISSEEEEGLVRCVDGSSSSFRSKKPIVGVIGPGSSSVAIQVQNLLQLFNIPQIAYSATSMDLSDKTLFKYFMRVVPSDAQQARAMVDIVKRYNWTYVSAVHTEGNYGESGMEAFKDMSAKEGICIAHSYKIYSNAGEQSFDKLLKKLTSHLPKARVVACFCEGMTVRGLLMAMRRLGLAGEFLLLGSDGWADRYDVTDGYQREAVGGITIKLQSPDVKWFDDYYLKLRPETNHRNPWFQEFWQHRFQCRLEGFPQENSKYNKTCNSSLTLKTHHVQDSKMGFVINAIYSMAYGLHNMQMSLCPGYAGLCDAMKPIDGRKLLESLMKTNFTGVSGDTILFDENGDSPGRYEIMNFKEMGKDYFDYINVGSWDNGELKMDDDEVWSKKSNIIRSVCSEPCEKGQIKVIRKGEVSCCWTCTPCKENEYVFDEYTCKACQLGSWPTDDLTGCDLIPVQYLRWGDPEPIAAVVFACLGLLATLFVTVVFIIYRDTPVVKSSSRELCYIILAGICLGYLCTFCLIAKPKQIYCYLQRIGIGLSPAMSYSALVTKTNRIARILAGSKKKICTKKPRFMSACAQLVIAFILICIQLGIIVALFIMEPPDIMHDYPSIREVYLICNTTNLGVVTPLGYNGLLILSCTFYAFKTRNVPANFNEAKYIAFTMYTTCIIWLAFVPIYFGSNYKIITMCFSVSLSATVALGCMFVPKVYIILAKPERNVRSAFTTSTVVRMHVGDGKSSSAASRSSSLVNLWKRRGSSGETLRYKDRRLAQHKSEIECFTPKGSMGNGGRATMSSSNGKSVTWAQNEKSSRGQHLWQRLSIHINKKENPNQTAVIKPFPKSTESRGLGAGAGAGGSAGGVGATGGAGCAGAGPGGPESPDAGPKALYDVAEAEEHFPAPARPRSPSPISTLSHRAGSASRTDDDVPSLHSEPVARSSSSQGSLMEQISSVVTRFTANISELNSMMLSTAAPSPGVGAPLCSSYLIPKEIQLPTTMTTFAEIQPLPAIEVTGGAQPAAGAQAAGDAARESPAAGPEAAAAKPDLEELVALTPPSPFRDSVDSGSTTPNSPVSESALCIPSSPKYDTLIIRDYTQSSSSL
Assay: Selectivity panel, mGlu5 Ca2+ assay
Assay type: cell-based
pEC50: −log10 of the molar value.
TEST_READOUT: pEC50

*Q* In one line, give reported pEC50 of the entry "CCCCn1ccn2c(-c3ccc(OCC4CC4)c(Cl)c3)c(C)nc2c1=O" .
*A* < 4.52

====

Molecular target: mGlu7 (Homo sapiens)
Sequence (Q14831 35-915): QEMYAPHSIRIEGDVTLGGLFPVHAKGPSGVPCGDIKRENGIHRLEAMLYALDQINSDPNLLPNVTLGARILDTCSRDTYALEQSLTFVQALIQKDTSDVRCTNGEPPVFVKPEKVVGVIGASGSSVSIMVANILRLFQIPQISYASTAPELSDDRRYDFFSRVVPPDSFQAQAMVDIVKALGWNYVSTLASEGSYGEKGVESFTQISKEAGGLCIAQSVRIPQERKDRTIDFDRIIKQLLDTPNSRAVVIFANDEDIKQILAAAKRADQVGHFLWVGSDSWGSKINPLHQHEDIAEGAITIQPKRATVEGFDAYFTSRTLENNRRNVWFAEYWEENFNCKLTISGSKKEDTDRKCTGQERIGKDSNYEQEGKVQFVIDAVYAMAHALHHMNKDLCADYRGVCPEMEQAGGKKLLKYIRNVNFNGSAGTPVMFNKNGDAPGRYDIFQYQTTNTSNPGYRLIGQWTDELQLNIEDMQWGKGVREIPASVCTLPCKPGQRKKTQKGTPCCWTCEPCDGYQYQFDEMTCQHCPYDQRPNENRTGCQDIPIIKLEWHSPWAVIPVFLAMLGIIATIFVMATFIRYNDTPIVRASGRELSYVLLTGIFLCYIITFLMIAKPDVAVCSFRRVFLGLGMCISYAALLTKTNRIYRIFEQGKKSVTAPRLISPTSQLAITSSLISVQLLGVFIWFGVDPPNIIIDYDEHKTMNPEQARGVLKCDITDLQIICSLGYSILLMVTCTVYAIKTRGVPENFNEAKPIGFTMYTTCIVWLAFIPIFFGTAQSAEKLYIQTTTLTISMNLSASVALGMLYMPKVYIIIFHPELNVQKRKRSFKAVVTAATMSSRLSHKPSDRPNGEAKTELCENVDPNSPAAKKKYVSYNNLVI
Assay: Selectivity panel, mGlu7 Ca2+ assay
TEST_READOUT: IC50 (µM)
Give the value, in units of µM, as a plain number.

*Q* Consider the compound "CCCCn1ccn2c(-c3ccc(OCC4CC4)c(Cl)c3)c(C)nc2c1=O" tested on mGlu7 (Homo sapiens); state its IC50.
*A* 8.32

====

Target: mGlu8 (Homo sapiens, UniProt O00222)
Sequence (O00222 34-908): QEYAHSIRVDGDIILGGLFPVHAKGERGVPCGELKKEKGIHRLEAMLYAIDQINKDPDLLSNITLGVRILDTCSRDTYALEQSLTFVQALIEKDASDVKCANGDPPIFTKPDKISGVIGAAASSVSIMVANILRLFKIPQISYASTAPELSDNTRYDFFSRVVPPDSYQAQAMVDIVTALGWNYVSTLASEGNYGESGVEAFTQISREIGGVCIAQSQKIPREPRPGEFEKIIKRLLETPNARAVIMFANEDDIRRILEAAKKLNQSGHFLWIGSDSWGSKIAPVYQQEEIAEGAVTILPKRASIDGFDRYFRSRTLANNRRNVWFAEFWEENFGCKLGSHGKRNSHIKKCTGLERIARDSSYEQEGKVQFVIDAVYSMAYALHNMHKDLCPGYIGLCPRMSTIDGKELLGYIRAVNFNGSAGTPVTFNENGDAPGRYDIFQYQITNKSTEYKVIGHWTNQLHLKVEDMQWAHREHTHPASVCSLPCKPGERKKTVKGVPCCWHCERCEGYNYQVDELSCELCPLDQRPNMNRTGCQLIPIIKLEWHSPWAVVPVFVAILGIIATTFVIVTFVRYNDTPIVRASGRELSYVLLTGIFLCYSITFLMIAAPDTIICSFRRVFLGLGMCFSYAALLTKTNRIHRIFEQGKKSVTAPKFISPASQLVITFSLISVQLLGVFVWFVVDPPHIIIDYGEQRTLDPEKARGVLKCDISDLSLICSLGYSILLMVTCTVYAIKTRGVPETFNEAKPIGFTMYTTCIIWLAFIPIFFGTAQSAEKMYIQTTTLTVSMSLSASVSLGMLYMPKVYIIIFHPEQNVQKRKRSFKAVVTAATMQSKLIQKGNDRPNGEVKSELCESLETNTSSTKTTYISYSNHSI
Experiment: Selectivity panel, mGlu8 Ca2+ assay
Type: cell-based
pIC50: −log10 of the molar value.
TEST_READOUT: pIC50

*Q* In one line, give reported pIC50 of the entry "CCCCn1ccn2c(-c3ccc(OCC4CC4)c(Cl)c3)c(C)nc2c1=O" .
*A* < 4.60

====

Experiment: Human liver microsomal stability
Assay type: in vitro ADME
Details: incubation with microsomes for 15 min at 5 μM
TEST_READOUT: HLM (%), percentage of compound metabolized

Reference set (4 entries):
1) CCCCn1ccn2c(-c3ccc(Oc4ccccc4)cc3)c(C)nc2c1=O [Compound 3j]: 2
2) CCCCn1ccn2c(-c3ccc(OCC4CC4)c(Cl)c3)c(C)nc2c1=O [Compound 3e]: 20
3) CCCCn1ccn2c(-c3ccc(OCC4CC4)c(Cl)c3)nc(C)c2c1=O [Compound 4e]: 31
4) CCCCn1ccn2c(-c3ccc(N4CCNCC4)c(Cl)c3)c(C)nc2c1=O [Compound 3g]: 0

I = CCCCn1ncn2c(-c3ccc(OCC4CC4)c(Cl)c3)cnc2c1=O [Compound 4c]
II = CCCCn1ccn2c(-c3ccc4c(ccn4-c4cccnc4)c3)c(C)nc2c1=O [Compound 3i]
*Q* I or II : whose HLM (%), percentage of compound metabolized is greater? // output: label of the selected item
*A* II
(II: 35%, I: 4%)

1 = CCCCn1ccn2c(-c3ccc(NCc4ccc(OC)nc4)cc3)c(C)nc2c1=O [Compound 3d]
2 = CCCCn1cnn2c(-c3ccc(OCC4CC4)c(Cl)c3)cnc2c1=O [Compound 4b]
*Q* 1 or 2 : whose HLM (%), percentage of compound metabolized is greater? // output: label of the selected item
*A* 1
